molecular target: Cyclin Dependent Kinase 4/Cyclin D3 (CDK4-cycD3) (Homo sapiens); construct: purchased Carna Biosciences 04-105; assay: CDK4-cycD3 TR-FRET (LANCE) enzyme assay; assay type: biochemical; conditions: Table O, enzymatic assay
Sequence (P11802 whole entry): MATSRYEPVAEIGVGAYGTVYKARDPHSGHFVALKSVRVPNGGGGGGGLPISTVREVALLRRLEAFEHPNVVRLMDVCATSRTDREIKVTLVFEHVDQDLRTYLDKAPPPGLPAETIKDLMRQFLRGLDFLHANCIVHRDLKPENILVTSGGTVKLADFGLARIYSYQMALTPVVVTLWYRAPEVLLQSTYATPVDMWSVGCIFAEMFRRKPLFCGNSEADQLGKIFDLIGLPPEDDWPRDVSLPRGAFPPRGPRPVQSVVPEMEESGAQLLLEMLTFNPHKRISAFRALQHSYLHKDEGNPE
Sequence (P30281 whole entry partner): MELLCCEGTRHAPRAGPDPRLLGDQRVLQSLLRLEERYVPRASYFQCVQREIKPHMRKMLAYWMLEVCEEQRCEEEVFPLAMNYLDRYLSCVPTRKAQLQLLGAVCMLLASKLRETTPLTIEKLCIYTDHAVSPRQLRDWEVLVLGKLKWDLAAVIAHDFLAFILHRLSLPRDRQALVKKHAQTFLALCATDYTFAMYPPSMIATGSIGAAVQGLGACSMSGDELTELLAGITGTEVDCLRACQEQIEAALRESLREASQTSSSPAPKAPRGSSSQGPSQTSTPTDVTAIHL
Threshold 200 nM: Ki strictly smaller gives true (1), otherwise false (0).

Known results for compounds:
CC(C)NC(=O)O[C@@H]1CC[C@H](c2cc(Nc3ccn(C)c(=O)c3)n[nH]2)C1 [Example 2AA] ... false (0)
CC1(NC(=O)O[C@@H]2CC[C@H](c3cc(Nc4cccnn4)n[nH]3)C2)CC1 [Example 3A] ... true (1)
COc1cc(=O)n(C)cc1Nc1cc([C@H]2CC[C@@H](OC(=O)NC34CC(C3)C4)C2)[nH]n1 [Example 10] ... false (0)
O=C(NC12CC(C1)C2)O[C@@H]1CC[C@H](c2cc(Nc3ccnnc3C3CC3)n[nH]2)C1 [Example 11] ... false (0)

Criterion: Ki strictly below 200 nM. Is it met by CNC(=O)c1ccnc(Nc2cc([C@H]3CC[C@@H](OC(=O)NC(C)(C)C)C3)[nH]n2)c1 [Example 4F] ?
true (1)

Field: below-cutoff. Rule: recorded Ki strictly less than 200 nM. Subject: Cn1nc(Nc2cc([C@H]3CC[C@@H](OC(=O)NC(C)(C)C)C3)[nH]n2)ccc1=O [Example 6C]
true (1)

Please check: Ki for C[C@H](NC(=O)O[C@@H]1CC[C@H](c2cc(Nc3ccc(=O)n(C)n3)n[nH]2)C1)c1ccccc1 [Example 6E] , strictly under 200 nM or not?
true (1)

Item Cc1nccc(Nc2cc([C@H]3CC[C@@H](OC(=O)NC(C)C)C3)[nH]n2)n1 [Example 2O] : Ki beneath 200 nM, strictly?
false (0)

is_below(Ki, 200 nM) for CC(CC(F)(F)F)NC(=O)O[C@@H]1CC[C@H](c2cc(Nc3ccc(=O)n(C)n3)n[nH]2)C1 (stereo partly shown) [Example 6D] ?
true (1)

Quick check: does Cn1c(Nc2cc([C@H]3CC[C@@H](OC(=O)NC45CC(C4)C5)C3)[nH]n2)nccc1=O [Example 9A] have Ki under 200 nM?
true (1)

* * *

target: Cyclin Dependent Kinase 2/Cyclin E1 (CDK2-cycE1) (Homo sapiens); construct: purchased ProQinase 0050-0055-1; experiment: CDK2-cycE1 TR-FRET (LANCE) enzyme assay; assay type: biochemical; settings: Table O, enzymatic assay; read-out: CDK2 Ki
readoutType: Ki (nM)
Answer format: numeric, nM implied, no suffix.

Supply reported Ki belonging to this compound: C[C@@H](NC(=O)O[C@@H]1CC[C@H](c2cc(Nc3cccnn3)n[nH]2)C1)C(F)(F)F (single isomer, unassigned) [Example 5B]
26

Note Ki for the compound shown: CC(C)NC(=O)O[C@@H]1CC[C@H](c2cc(Nc3ccncn3)n[nH]2)C1 [Example 2C]
1.1

Read off the recorded Ki for CNC(=O)c1cnc(Nc2cc([C@H]3CC[C@@H](OC(=O)NC45CC(C4)C5)C3)[nH]n2)c(C)n1 [Example 9E]
2.1

Query Ki for Cc1cc(Nc2cc([C@H]3CC[C@@H](OC(=O)NC45CC(C4)C5)C3)[nH]n2)c(C)nn1 [Example 9D]
12

For the compound CC(C)NC(=O)O[C@@H]1CC[C@H](c2cc(Nc3ccc(=O)n(C)n3)n[nH]2)C1 [Example 2] , give its reported Ki.
0.44

Specify measured Ki for O=C(NC12CC(C1)C2)O[C@@H]1CC[C@H](c2cc(Nc3ccc(N4CCOCC4)nc3)n[nH]2)C1 [Example 9K] .
5.6

Note Ki for the compound shown: CC1(NC(=O)O[C@@H]2CC[C@H](c3cc(Nc4cccnn4)n[nH]3)C2)COC1 [Example 3G]
8.3

* * *

molecular target: Cyclin Dependent Kinase 4/Cyclin D3 (CDK4-cycD3) (Homo sapiens); construct: purchased Carna Biosciences 04-105; experiment: CDK4-cycD3 TR-FRET (LANCE) enzyme assay; assay type: biochemical; details: Table S, enzymatic assay
readoutType: Ki (nM)
Hi! Could you send only the number? It should be in nM, unit omitted.

Return reported Ki. Input compound: CC(C)(C)NC(=O)O[C@@H]1CC[C@H](c2cc(Nc3ccccc3)n[nH]2)C1 [Comparator E, reference compound]
23

* * *

Each record here notes measured log10(Ki).
molecular target: Cyclin Dependent Kinase 2/Cyclin E1 (CDK2-cycE1) (Homo sapiens, UniProt P24941); construct: purchased ProQinase 0050-0055-1; test: CDK2-cycE1 TR-FRET (LANCE) enzyme assay; type: biochemical; settings: Table O, enzymatic assay; read-out: CDK2 Ki
// stored as log10 of Ki expressed in nM

Look over these answered cases.
COc1ncc(Nc2cc([C@H]3CC[C@@H](OC(=O)NC(C)C)C3)[nH]n2)cn1 ... 1.15
CC(C)(C)NC(=O)O[C@@H]1CC[C@H](c2cc(Nc3ncccn3)n[nH]2)C1 ... 0.40
CC(C)(C)NC(=O)O[C@@H]1CC[C@H](c2cc(Nc3ccncc3)n[nH]2)C1 ... 0.30
Cc1cc(=O)n(C)nc1Nc1cc([C@H]2CC[C@@H](OC(=O)NC(C)(C)C)C2)[nH]n1 ... 0.32
CC(C)(C)NC(=O)O[C@@H]1CC[C@H](c2cc(Nc3ccnc(CO)c3)n[nH]2)C1 [Example 10C] ... 0.26
Cc1cc(Nc2cc([C@H]3CC[C@@H](OC(=O)NC45CC(C4)C5)C3)[nH]n2)ccn1 ... 0.28
CC(C)(C)NC(=O)O[C@@H]1CC[C@H](c2cc(Nc3cccnn3)n[nH]2)C1 ... 0.40
Cc1ncccc1Nc1cc([C@H]2CC[C@@H](OC(=O)NC3CC(O)C3)C2)[nH]n1 (stereo partly shown) ... 1.36
CC(C)NC(=O)O[C@@H]1CC[C@H](c2cc(Nc3ccnc(N(C)C)n3)n[nH]2)C1 ... -0.51
CC(C)NC(=O)O[C@@H]1CC[C@H](c2cc(Nc3ccc(-n4ccnc4)cn3)n[nH]2)C1 ... 0.51

Then this compound:
Assign log10(Ki) to the following record: CC(C)NC(=O)O[C@@H]1CC[C@H](c2cc(Nc3ncnc(N(C)C)n3)n[nH]2)C1
1.61

* * *

target: Cyclin Dependent Kinase 2/Cyclin E1 (CDK2-cycE1) (Homo sapiens, UniProt P24941); construct: purchased ProQinase 0050-0055-1; assay: CDK2-cycE1 TR-FRET (LANCE) enzyme assay; type: biochemical; details: Table O, fold selectivity, enzymatic CDK4 Ki over CDK2 Ki
Definition: the class of an entry is the range in L: < 30; M: ≥ 30 and < 100; H: ≥ 100 that contains its FS CDK4/CDK2.

Example entries and their recorded answers appear below.
CC(C)NC(=O)O[C@@H]1CC[C@H](c2cc(Nc3cncc(N(C)C)n3)n[nH]2)C1 ... M
C[C@H](NC(=O)O[C@@H]1CC[C@H](c2cc(Nc3ccc(=O)n(C)n3)n[nH]2)C1)c1ccccc1 ... L
CN1CCC(NC(=O)O[C@@H]2CC[C@H](c3cc(Nc4cccnn4)n[nH]3)C2)CC1 ... M
CC(C)(C)NC(=O)O[C@@H]1CC[C@H](c2cc(Nc3ccncc3)n[nH]2)C1 ... M
COc1nc(C)ncc1Nc1cc([C@H]2CC[C@@H](OC(=O)NC(C)C)C2)[nH]n1 ... H
O=C(NC12CC(C1)C2)O[C@@H]1CC[C@H](c2cc(Nc3cccnn3)n[nH]2)C1 ... M
Cc1cc(Nc2cc([C@H]3CC[C@@H](OC(=O)NC(C)(C)C)C3)[nH]n2)nn(C)c1=O ... H
Cc1ncccc1Nc1cc([C@H]2CC[C@@H](OC(=O)N[C@H]3CCN(C)C3)C2)[nH]n1 ... L

Into which category would you place Cc1nc(C#N)ccc1Nc1cc([C@H]2CC[C@@H](OC(=O)NC(C)(C)C)C2)[nH]n1 [Example 10D] ?
H

For CC(C)(C)NC(=O)O[C@@H]1CC[C@H](c2cc(Nc3ccnnc3)n[nH]2)C1 , which FS CDK4/CDK2 bin applies?
H

The entry to classify is CC(C)NC(=O)O[C@@H]1CC[C@H](c2cc(Nc3ccn(C)c(=O)c3)n[nH]2)C1 ; which class holds it?
L

Bin? CC[C@@H](C)NC(=O)O[C@@H]1CC[C@H](c2cc(Nc3cccnn3)n[nH]2)C1 (single isomer, unassigned)
L

Pick a category. Item: Cc1ncccc1Nc1cc([C@H]2CC[C@@H](OC(=O)NC(C)(C)C)C2)[nH]n1
H

Class for CC(C)NC(=O)O[C@@H]1CC[C@H](c2cc(Nc3ccc(-n4cccn4)nc3)n[nH]2)C1 ?
M

Band for CC(C)NC(=O)O[C@@H]1CC[C@H](c2cc(Nc3cnccn3)n[nH]2)C1 ?
M

* * *

biological target: Cyclin Dependent Kinase 2/Cyclin E1 (CDK2-cycE1) (Homo sapiens, UniProt P24941); construct: purchased ProQinase 0050-0055-1; assay: CDK2-cycE1 TR-FRET (LANCE) enzyme assay; assay type: biochemical; settings: Table O, fold selectivity, enzymatic CDK1 Ki over CDK2 Ki
FS CDK1/CDK2 listing for selected compounds.
The answer should be written as a number, with no unit following it.

CC(C)NC(=O)O[C@@H]1CC[C@H](c2cc(Nc3cncnc3)n[nH]2)C1 ... 47
CN(C)Cc1ccc(Nc2cc([C@H]3CC[C@@H](OC(=O)NC45CC(C4)C5)C3)[nH]n2)cn1 ... 34
Cc1cc(=O)n(C)cc1Nc1cc([C@H]2CC[C@@H](OC(=O)NC(C)C)C2)[nH]n1 ... 8.3
Cc1ncccc1Nc1cc([C@H]2CC[C@@H](OC(=O)NC3CC(O)C3)C2)[nH]n1 (stereo partly shown) ... 16
C[C@H](NC(=O)O[C@@H]1CC[C@H](c2cc(Nc3cccnn3)n[nH]2)C1)C(F)(F)F (single isomer, unassigned) ... 27

Now consider a different compound.
Assign FS CDK1/CDK2 to the following record: CC(C)NC(=O)O[C@@H]1CC[C@H](c2cc(Nc3cccn(C)c3=O)n[nH]2)C1
29
